experiment: yeast display, Sf9 membrane polyspecificity reagent, FACS + sequencing; frameworks hold sequencing errors
VALUE_TYPE: polyreactivity (PSR sort gate)

QVQLVESGGGLVQAGGSLRLSCAASGSTFYRYAMGWYRQAPGKERELVARIDWSDGSTNYADSVKGRFTISRDNAKNTVYLQMNSLKPEDTAVYYCAADTYSDTYDGEYEYWGQGTQVTVSS	low polyreactivity
QDQHGESGGGLVQAGGSLRLSCAASGFIFWSYTMGWYRQAPGKERELVAVITGSGSTYYADSVKGRFTISRDNAKNTVYFQMNSLKPEDTALYYCATEVHVTAWTFEYEYWGQGTQVTVSS	low polyreactivity
QVQVVESGGGILQAGGSLRLSCAASGSIFYTNAMGWYRQAPGKERELVAAINLRDTGTYYADSVKGRFTISRDNAKNTVYLQMNSLNPDDTAVYYCAVDVYSRRTRIRYDSWGHGTQVTVSS	low polyreactivity
